# System: SF-295 CNS
# Test Name: NCI-60 one-dose screen, 48 h
# Test Parameters: 10 µM unless noted
About 83,000 compounds went through this panel and 20% of them were active in at least one assay; those are over-represented in the sample as a whole. Active and inactive are the calls of the source. The calls were made as follows: active = growth percent below 10; inactive = the rest.
Just give me one of these, please: active, inactive

Example entries begin here.
CCCCCCCCCCCCCC(=O)C(C)N (configuration not stated)	inactive
O=C1O[C@H]([C@H](O)CO)C(O)=C1O	inactive
CC/C=C\C[C@H](O)C/C=C1/C(=O)C=C[C@@H]1C/C=C\CCCC(N)=O	active
C(=N\Nc1nnn(Cc2ccccc2)n1)/c1ccccc1	inactive
Cc1cc(Cl)ccc1Nc1nc(C(F)(F)F)ccc1C(=O)N/N=C/c1ccc(F)cc1	inactive

Data request: Per the records of this test, what outcome belongs to "Cc1ccccc1CCO" ?
Data returned: inactive

Data request: Per the records of this test, what outcome belongs to "COc1ccc(/C=N\NC(=O)c2ccncc2)cc1O" ?
Data returned: inactive

---

Can you tell me growth for the items I'm about to list?
# System: HS 578T breast
# Test Name: NCI-60 one-dose screen, 48 h (100 = growth as untreated, 0 = no growth, -100 = all killed)
# Test Parameters: 10 µM unless noted
The panel holds about 83,000 compounds, 20% with a hit somewhere; the sample as a whole holds those more often.
Answers are plain numbers, in %.

Previously resolved entries follow.
O=C(Nc1ccc(Nc2cc(Nc3ccccc3)ncn2)cc1)Nc1cc(C(F)(F)F)ccc1F	78.9
OCCNCCNc1c2ccccc2nc2ccccc12	88.4
Cc1nc2sc(C(=O)Nc3cccc4c3OCCO4)c(N)c2cc1C(C)O (stereo not given)	33.5
CC(C)n1cc2c(N)ncnc2n1	105

--- query ---
Data request: Reported growth for "Nc1ccc(Nc2nccc(-c3ccc4ccccc4c3)n2)cc1" : what is it?
Data returned: 43.1

---

# Test system: HS 578T breast
# Test Name: NCI-60 one-dose screen, 48 h (100 = growth as untreated, 0 = no growth, -100 = all killed)
# Test Parameters: 10 µM unless noted
The panel holds about 83,000 compounds, 20% with a hit somewhere; the sample as a whole holds those more often.
Kindly apply the following: Y if growth is less than 70%, N in every other case.

Example entries begin here.
O=C1C(=O)N(CCCCn2cc(CO)nn2)c2ccccc21	N
OC(c1cccc(C(F)(F)F)c1)c1cnccc1NC1CCCCCC1 (configuration not stated)	Y
O=C1/C(=C/c2ccc(Cl)c(Cl)c2)CN(C(=O)CCN2CCC(=NO)CC2)C/C1=C\c1ccc(Cl)c(Cl)c1	Y

Data request: Determine if "Nc1cccc(NC(=O)C(=O)Nc2cccc(N)c2)c1" shows growth strictly lower than 70%.
Data returned: N

Data request: Determine if "COC1=CC(=O)C(OC)=C(OC)C1=O" shows growth strictly lower than 70%.
Data returned: N

Data request: Determine if "C[C@]12C[C@@H](c3ccoc3)OC(=O)[C@@H]1CC[C@]1(C)[C@@H]2CC[C@@H](O)[C@]1(C)O" shows growth strictly lower than 70%.
Data returned: N

Data request: Determine if "Cc1cc(Nc2nc(N3CCN(C)CC3)nc3ccccc23)n[nH]1" shows growth strictly lower than 70%.
Data returned: Y

Data request: Determine if "O=C1c2cc3c(cc2-c2c1c1cc(Cl)c(Cl)cc1c(=O)n2C[C@H](O)CO)OCO3" shows growth strictly lower than 70%.
Data returned: Y

Data request: Determine if COc1ccc(C2CC(=O)Nc3c2c(C)nn3-c2nc3ccccc3[nH]2)cc1 (configuration not stated) shows growth strictly lower than 70%.
Data returned: Y

Data request: Determine if "COc1cc(-c2c3c(nc4c2c(C)nn4-c2ccccc2)-c2ccccc2C(=O)C3=O)cc(OC)c1OC" shows growth strictly lower than 70%.
Data returned: N

Data request: Determine if "O=C(Cc1ccccc1)c1ccc(Cl)cc1" shows growth strictly lower than 70%.
Data returned: N
